Test System: Protein deacetylase HDAC6 (Homo sapiens, UniProt Q9UBN7)
Sequence (Q9UBN7 whole entry): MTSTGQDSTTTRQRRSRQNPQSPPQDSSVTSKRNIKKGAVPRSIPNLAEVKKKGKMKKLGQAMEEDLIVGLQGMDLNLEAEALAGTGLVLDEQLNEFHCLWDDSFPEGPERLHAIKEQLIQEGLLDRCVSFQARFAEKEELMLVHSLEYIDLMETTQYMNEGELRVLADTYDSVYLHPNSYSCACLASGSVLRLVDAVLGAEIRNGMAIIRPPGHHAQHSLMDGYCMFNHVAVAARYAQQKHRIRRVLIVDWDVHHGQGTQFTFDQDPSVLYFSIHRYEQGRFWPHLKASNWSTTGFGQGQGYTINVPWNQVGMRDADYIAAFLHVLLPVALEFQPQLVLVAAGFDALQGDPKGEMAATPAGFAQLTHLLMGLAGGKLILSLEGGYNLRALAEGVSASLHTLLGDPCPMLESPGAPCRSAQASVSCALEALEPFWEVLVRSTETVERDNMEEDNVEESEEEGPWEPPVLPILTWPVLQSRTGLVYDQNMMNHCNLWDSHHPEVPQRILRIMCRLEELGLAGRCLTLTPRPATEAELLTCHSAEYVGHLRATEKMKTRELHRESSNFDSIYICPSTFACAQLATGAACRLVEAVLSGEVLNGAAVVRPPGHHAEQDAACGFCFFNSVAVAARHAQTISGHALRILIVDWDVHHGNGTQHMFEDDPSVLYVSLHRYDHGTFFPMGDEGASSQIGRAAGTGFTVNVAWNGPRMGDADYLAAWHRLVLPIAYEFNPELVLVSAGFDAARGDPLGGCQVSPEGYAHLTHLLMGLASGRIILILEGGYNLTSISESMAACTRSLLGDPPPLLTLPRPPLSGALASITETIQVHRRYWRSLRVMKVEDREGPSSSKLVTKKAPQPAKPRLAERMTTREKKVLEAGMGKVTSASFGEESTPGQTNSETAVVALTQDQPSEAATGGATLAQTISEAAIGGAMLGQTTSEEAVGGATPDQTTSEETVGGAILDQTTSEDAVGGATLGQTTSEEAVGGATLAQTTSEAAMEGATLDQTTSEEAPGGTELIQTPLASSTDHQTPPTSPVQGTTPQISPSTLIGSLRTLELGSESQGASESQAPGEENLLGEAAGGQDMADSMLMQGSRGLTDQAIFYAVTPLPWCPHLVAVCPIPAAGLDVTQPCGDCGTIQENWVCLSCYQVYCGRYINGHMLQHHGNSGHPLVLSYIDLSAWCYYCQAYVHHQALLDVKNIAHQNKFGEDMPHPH
Protocol Notes: Inhibition of human recombinant HDAC6 using RHKKAc peptide as substrate incubated for 5 to mins prior to substrate addition measured after 2 hrs
Value Type: pIC50
Units for pIC50: none; it is -log10 of a concentration expressed in mol/L.

NC(=O)CCCN1CCc2c(c3ccccc3n2Cc2ccc(C(=O)NO)cc2)C1 ... 8.39

Name the recorded pIC50 for COc1ccc2c(c1)c1c(n2Cc2ccc(C(=O)NO)cc2)CCN(C)C1 .
8.51

Also, Cc1ccc2c(c1)c1c(n2Cc2ccc(C(=O)NO)cc2)CCN(C)C1 please.
8.31

Also, CCN1CCc2c(c3ccccc3n2Cc2ccc(C(=O)NO)cc2)C1 please.
8.52

====

Species on record: Homo sapiens
Protocol Notes: Selectivity ratio of IC50 for human recombinant HDAC1 to IC50 for human recombinant HDAC6
Recorded Ratio IC50, one value per entry.
Respond numerically, and do not add a unit to the figure.

Worked cases, answers included:
CN1CCc2c(c3cc(Cl)ccc3n2Cc2ccc(C(=O)NO)cc2)C1 ... 1000
Cc1ccc2c3c(n(Cc4ccc(C(=O)NO)cc4)c2c1)CCN(C)C3 ... 352
O=C(NO)c1ccc(Cn2c3c(c4ccccc42)CN(Cc2ccccc2)CC3)cc1 ... 7150
NC(=O)CCCN1CCc2c(c3ccccc3n2Cc2ccc(C(=O)NO)cc2)C1 ... 1830
O=C(NO)c1ccc(Cn2c3c(c4ccccc42)CN(Cc2ccncc2)CC3)cc1 ... 4710

Name the recorded Ratio IC50 for NC(=O)CCN1CCc2c(c3ccccc3n2Cc2ccc(C(=O)NO)cc2)C1 .
3510

Also, CN1CCc2c(c3cc(C(C)(C)C)ccc3n2Cc2ccc(C(=O)NO)cc2)C1 please.
626

Also, Cc1cccc2c3c(n(Cc4ccc(C(=O)NO)cc4)c12)CCN(C)C3 please.
636

====

Organism: Homo sapiens
Protocol Notes: Selectivity ratio of IC50 for human recombinant HDAC1 to IC50 for human recombinant HDAC6
Value Type: Ratio IC50

C=CCN1CCc2c(c3ccccc3n2Cc2ccc(C(=O)NO)cc2)C1 ... 5990
O=C(NO)c1ccc(Cn2c3c(c4ccccc42)CNCC3)cc1 ... 2500
O=C(NO)c1ccc(Cn2c3c(c4ccccc42)CCN(Cc2ccccc2)C3)cc1 ... 4950
COc1ccc2c(c1)c1c(n2Cc2ccc(C(=O)NO)cc2)CCN(C)C1 ... 614
COc1ccc(CN2CCc3c(c4ccccc4n3Cc3ccc(C(=O)NO)cc3)C2)cc1 ... 1520
CC(C)(C)OC(=O)N1CCc2c(c3ccccc3n2Cc2ccc(C(=O)NO)cc2)C1 ... 3830
CN1CCc2c(c3cc(Br)ccc3n2Cc2ccc(C(=O)NO)cc2)C1 ... 606
Cc1ccc2c(c1)c1c(n2Cc2ccc(C(=O)NO)cc2)CCN(C)C1 ... 422

Name the recorded Ratio IC50 for CN1CCc2c(n(Cc3ccc(C(=O)NO)cc3)c3ccccc23)C1 .
3700

Also, NC(=O)CN1CCc2c(c3ccccc3n2Cc2ccc(C(=O)NO)cc2)C1 please.
4980

Also, O=C(NO)c1ccc(Cn2c3c(c4ccccc42)CCNC3)cc1 please.
3900

Also, CC(C)N1CCc2c(c3ccccc3n2Cc2ccc(C(=O)NO)cc2)C1 please.
1750

Where do the numbers come from? From ChEMBL document CHEMBL2016572.
